Every entry's value here was drawn from patent US8188059B2.

Tested on: PCSK9 mRNA
Type: cell-based, human
Conditions: Hep3B cells, 100 nM, relative to untreated control cells; 0 = no reduction observed
Strand notation (5' to 3'): a small letter for the sugar, then the base; units joined by * are phosphorothioate-linked, units joined directly phosphodiester-linked; [ ] holds rarer units or linkages, { } end groups; capitals alone tell only the bases. e = 2'-O-(2-methoxyethyl) (MOE); [5mC] = 5-methylcytosine; d = 2'-deoxy (DNA)
Recorded % Inhib (PCSK9 mRNA) for the following substances
Response body: numeric value in %, unit text excluded.

INSERT INTO results (substance, datavalue) VALUES
  ('400299 (antisense eA*e[5mC]*dA*dT*dG*dG*dG*dG*d[5mC]*dA*dA*d[5mC]*eT*eT) [compound 400299]', 0),
  ('400367 (antisense eG*eG*d[5mC]*dT*d[5mC]*d[5mC]*dG*dG*d[5mC]*dA*dG*d[5mC]*eA*eG) [compound 400367]', 12);

Turning now to a further record.
Problem: Provide the documented % Inhib (PCSK9 mRNA) with PCSK9 mRNA as the system for 400348 (antisense eT*eG*dG*dA*dG*d[5mC]*dA*dG*d[5mC]*dT*d[5mC]*dA*eG*e[5mC]) [compound 400348]
Solution: 0

---

Tested on: rat DGAT2 mRNA
Test: Dose-dependent inhibition of DGAT2 in A10 cells, 0.62-150 nM (Example 22, Table 83)
Format: cell-based
Details: 1.85 nM
Strand notation (5' to 3'): a small letter for the sugar, then the base; units joined by * are phosphorothioate-linked, units joined directly phosphodiester-linked; [ ] holds rarer units or linkages, { } end groups; capitals alone tell only the bases. e = 2'-O-(2-methoxyethyl) (MOE); [5mC] = 5-methylcytosine; d = 2'-deoxy (DNA)
percent inhibition of rat DGAT2 values by entry
Answer with a number only.

# annotated cases, reported percent inhibition of rat DGAT2 shown
INSERT INTO measurements (substance, measurename, datavalue) VALUES
  ('372594 (antisense eA*e[5mC]*dA*dG*dA*dA*dG*dG*d[5mC]*dA*d[5mC]*d[5mC]*e[5mC]*eA) [compound 372594]', 'percent inhibition of rat DGAT2', 0),
  ('372602 (antisense e[5mC]*e[5mC]*dA*dG*dG*d[5mC]*dA*dT*dG*dG*dA*dG*e[5mC]*eT) [compound 372602]', 'percent inhibition of rat DGAT2', 0),
  ('372618 (antisense eG*eT*dG*dG*dT*dA*d[5mC]*dA*dG*dG*dT*d[5mC]*eG*eA) [compound 372618]', 'percent inhibition of rat DGAT2', 0),
  ('372508 (antisense eA*eG*eT*dT*d[5mC]*d[5mC]*dT*dG*dG*dT*dG*dG*dT*e[5mC]*eA*eG) [compound 372508]', 'percent inhibition of rat DGAT2', 0),
  ('372563 (antisense eA*eG*d[5mC]*d[5mC]*dA*dG*dG*dT*dG*dA*d[5mC]*dA*eG*eA) [compound 372563]', 'percent inhibition of rat DGAT2', 0);

Problem: Report percent inhibition of rat DGAT2 for 372500 (antisense eG*eT*eG*dT*dG*dT*d[5mC]*dT*dT*d[5mC]*dA*d[5mC]*d[5mC]*eA*eG*e[5mC]) [compound 372500] please.
Solution: 0

Problem: Continue with 372524 (antisense eG*e[5mC]*e[5mC]*dA*dG*dG*d[5mC]*dA*dT*dG*dG*dA*dG*e[5mC]*eT*e[5mC]) [compound 372524]
Solution: 0

---

In this section, each of the substances is paired with its reported percent inhibition of rat DGAT2.
Test system: rat DGAT2 mRNA
Assay: Dose-dependent inhibition of DGAT2 in A10 cells, 0.62-150 nM (Example 22, Table 83)
Format: cell-based
Conditions: 5.56 nM
Strand notation (5' to 3'): a small letter for the sugar, then the base; units joined by * are phosphorothioate-linked, units joined directly phosphodiester-linked; [ ] holds rarer units or linkages, { } end groups; capitals alone tell only the bases. e = 2'-O-(2-methoxyethyl) (MOE); [5mC] = 5-methylcytosine; d = 2'-deoxy (DNA)
The response must contain the number and no unit.

Look over these answered cases.
INSERT INTO assay_data (substance, measurename, datavalue) VALUES
  ('372503 (antisense eG*e[5mC]*eA*dG*dG*dT*dT*dG*dT*dG*dT*dG*dT*e[5mC]*eT*eT) [compound 372503]', 'percent inhibition of rat DGAT2', 4),
  ('372586 (antisense eG*eT*dT*d[5mC]*d[5mC]*dT*dG*dG*dT*dG*dG*dT*e[5mC]*eA) [compound 372586]', 'percent inhibition of rat DGAT2', 0),
  ('372602 (antisense e[5mC]*e[5mC]*dA*dG*dG*d[5mC]*dA*dT*dG*dG*dA*dG*e[5mC]*eT) [compound 372602]', 'percent inhibition of rat DGAT2', 10),
  ('372530 (antisense eT*e[5mC]*eG*dG*d[5mC]*d[5mC]*d[5mC]*d[5mC]*dA*dG*dG*dA*dG*e[5mC]*e[5mC]*e[5mC]) [compound 372530]', 'percent inhibition of rat DGAT2', 0),
  ('372624 (antisense eT*eG*dG*dT*d[5mC]*dT*dT*dG*dT*dG*dA*dT*eT*eG) [compound 372624]', 'percent inhibition of rat DGAT2', 0),
  ('372501 (antisense eT*eT*eG*dT*dG*dT*dG*dT*d[5mC]*dT*dT*d[5mC]*dA*e[5mC]*e[5mC]*eA) [compound 372501]', 'percent inhibition of rat DGAT2', 10),
  ('372546 (antisense eT*eT*eG*dG*dT*d[5mC]*dT*dT*dG*dT*dG*dA*dT*eT*eG*eT) [compound 372546]', 'percent inhibition of rat DGAT2', 11),
  ('372580 (antisense eG*eG*dT*dT*dG*dT*dG*dT*dG*dT*d[5mC]*dT*eT*e[5mC]) [compound 372580]', 'percent inhibition of rat DGAT2', 5);

Problem: Need percent inhibition of rat DGAT2, item 372594 (antisense eA*e[5mC]*dA*dG*dA*dA*dG*dG*d[5mC]*dA*d[5mC]*d[5mC]*e[5mC]*eA) [compound 372594]
Solution: 0

Problem: # repeat for 372578 (antisense eT*eG*dT*dG*dT*d[5mC]*dT*dT*d[5mC]*dA*d[5mC]*d[5mC]*eA*eG) [compound 372578]
Solution: 0

Problem: And for 372500 (antisense eG*eT*eG*dT*dG*dT*d[5mC]*dT*dT*d[5mC]*dA*d[5mC]*d[5mC]*eA*eG*e[5mC]) [compound 372500] ?
Solution: 0

Problem: Then this substance: 372516 (antisense eT*eA*e[5mC]*dA*dG*dA*dA*dG*dG*d[5mC]*dA*d[5mC]*d[5mC]*e[5mC]*eA*eG) [compound 372516]
Solution: 0

Problem: Try this substance too: 372524 (antisense eG*e[5mC]*e[5mC]*dA*dG*dG*d[5mC]*dA*dT*dG*dG*dA*dG*e[5mC]*eT*e[5mC]) [compound 372524]
Solution: 5

---

System: rat DGAT2 mRNA
Experiment: Dose-dependent inhibition of DGAT2 in A10 cells, 6.25-200 nM (Example 22, Table 82)
Format: cell-based
Settings: 50.0 nM
Strand notation (5' to 3'): a small letter for the sugar, then the base; units joined by * are phosphorothioate-linked, units joined directly phosphodiester-linked; [ ] holds rarer units or linkages, { } end groups; capitals alone tell only the bases. e = 2'-O-(2-methoxyethyl) (MOE); [5mC] = 5-methylcytosine; d = 2'-deoxy (DNA)
Catalogue of substances with associated percent inhibition of DGAT2

The examples below pair each entry with its known result.
INSERT INTO results (substance, measurementtarget, datavalue) VALUES
  ('372602 (antisense e[5mC]*e[5mC]*dA*dG*dG*d[5mC]*dA*dT*dG*dG*dA*dG*e[5mC]*eT) [compound 372602]', 'rat DGAT2 mRNA', 18),
  ('372568 (antisense eG*eA*d[5mC]*dA*d[5mC]*dT*dG*d[5mC]*dA*dG*dG*d[5mC]*e[5mC]*eA) [compound 372568]', 'rat DGAT2 mRNA', 26);

Problem: Hi! What's the reported percent inhibition of DGAT2 for 372586 (antisense eG*eT*dT*d[5mC]*d[5mC]*dT*dG*dG*dT*dG*dG*dT*e[5mC]*eA) [compound 372586] on rat DGAT2 mRNA?
Solution: 22

Problem: Try this substance too: 372618 (antisense eG*eT*dG*dG*dT*dA*d[5mC]*dA*dG*dG*dT*d[5mC]*eG*eA) [compound 372618]
Solution: 27

Problem: Another: 372562 (antisense eG*eT*d[5mC]*dT*dT*dG*dG*dA*dG*dG*dG*d[5mC]*e[5mC]*eG) [compound 372562]
Solution: 36
